CO2 permeability values for the molecules below.
Write the value in Barrer as a bare number.

*Oc1ccc(-c2nn(-c3ccc(S(=O)(=O)c4ccc(*)cc4)cc3)c(=O)c3ccccc23)cc1 (repeat unit); 0.92
*Oc1cc2c(cc1O*)C(C)(C)CC1(CC(C)(C)c3cc4c(cc3O1)Oc1c(C#N)c(*)c(*)c(C#N)c1O4)O2 (repeat unit); 1540
*c1ccc(Oc2ccc(C3(c4ccc(Oc5ccc(N6C(=O)c7ccc(C(c8ccc9c(c8)C(=O)N(*)C9=O)(C(F)(F)F)C(F)(F)F)cc7C6=O)c(C)c5)cc4)c4ccccc4-c4ccccc43)cc2)cc1C (repeat unit); 11.7

Now examine the next entry.
Value lookup for CO2 permeability; key = *C(=C(*)c1ccc([Si](C)(C)CCCCCCCC)cc1)c1ccc(C(C)C)cc1 (repeat unit) 120

* * *

reported-property: CO2 permeability (Barrer)
Write the value in Barrer as a bare number.

*CC(*)F (repeat unit); 0.0791
*OCCCCCC(*)=O (repeat unit); 16.8
*c1ccc(C(C)(C)c2cccc(N3C(=O)c4ccc(C(c5ccc6c(c5)C(=O)N(*)C6=O)(C(F)(F)F)C(F)(F)F)cc4C3=O)c2)cc1 (repeat unit); 10.7
*c1ccc2c(c1)C1c3ccccc3C2c2cc(N3C(=O)c4ccc(C(c5ccc6c(c5)C(=O)N(*)C6=O)(C(F)(F)F)C(F)(F)F)cc4C3=O)ccc21 (repeat unit); 202
*C/C(C)=C(\C)C* (repeat unit); 7.47

Value lookup for CO2 permeability; key = *Nc1ccc(S(=O)(=O)c2ccc(NC(=O)c3cc(C(*)=O)cc(-c4ccccc4)c3)cc2)cc1 (repeat unit) 3.2

Next up: *CC=C(C*)[Si](C)(OC(C)C)OC(C)C (repeat unit) 345

Next up: *c1cccc(N2C(=O)c3ccc(C(=O)c4ccc5c(c4)C(=O)N(*)C5=O)cc3C2=O)c1 (repeat unit) 0.428

Next up: *c1ccc(Oc2ccc(S(=O)(=O)c3ccc(Oc4ccc(S(*)(=O)=O)cc4)cc3)cc2)cc1 (repeat unit) 2.88

Next up: *O[Si](C)(C)CCCCCC[Si](*)(C)C (repeat unit) 1310

Next up: *Oc1ccc(C(C)(C)c2cccc(C(C)(C)c3ccc(Oc4ccc(S(=O)(=O)c5ccc(*)cc5)cc4)cc3)c2)cc1 (repeat unit) 2.8

Next up: *C(=C(*)c1ccc2c(c1)C(C)(C)c1ccccc1-2)c1cc(F)cc(F)c1 (repeat unit) 9200

Next up: *C(C)=C(*)CCCCCCC (repeat unit) 290

Next up: *c1ccc(Oc2ccc(C(C)(C)c3ccc(Oc4ccc(N5C(=O)c6ccc(Oc7ccc8c(c7)C(=O)N(*)C8=O)cc6C5=O)cc4)cc3)cc2)cc1 (repeat unit) 2.7

Next up: *c1cccc(C(c2cccc(-c3nnc(*)n3-c3ccccc3)c2)(C(F)(F)F)C(F)(F)F)c1 (repeat unit) 132

Next up: *c1c(C)cc(Cc2cc(C)c(N3C(=O)c4ccc(C(c5ccc6c(c5)C(=O)N(*)C6=O)(C(F)(F)F)C(F)(F)F)cc4C3=O)c(C)c2)cc1C (repeat unit) 43.9

Next up: *OC1OC(COC(=O)NC(C)(C)C)C(*)C(OC(C)=O)C1OC(C)=O (repeat unit) 28.5

* * *

CO2 permeability values for the compounds below.
Write the value in Barrer as a bare number.

*c1ccc(Cc2ccc(N3C(=O)c4ccc(-c5ccc6c(c5)C(=O)N(*)C6=O)cc4C3=O)c(C)c2)cc1C (repeat unit); 1.41
*C[Si](*)(C)C (repeat unit); 549
*OC1OC(COCC)C(*)C(OCC)C1OCC (repeat unit); 91
*CC(*)c1ccc(F)cc1 (repeat unit); 17.2

Value lookup for CO2 permeability; key = *Nc1c(C)cc(Cc2cc(C)c(NC(=O)c3ccc(Oc4cc(C(C)(C)C)c(Oc5ccc(C(*)=O)cc5)cc4C(C)(C)C)cc3)c(C(C)C)c2)cc1C(C)C (repeat unit) 27

Next up: *c1c(C)c(C)c(-n2c(=O)c3cc4oc5cc6c(cc5oc4cc3c2=O)C2(CC(C)(C)c3cc4oc5cc7c(=O)n(*)c(=O)c7cc5oc4cc32)CC6(C)C)c(C)c1C (repeat unit) 1100

Next up: *C(=O)c1ccc(C2(c3ccc(C(=O)c4ccc(Oc5ccc(C(=O)c6cccc(C(=O)c7ccc(Oc8ccc(*)cc8)cc7)c6)cc5)cc4)cc3)OC(=O)c3ccccc32)cc1 (repeat unit) 0.91

Next up: *c1ccc(Oc2ccc(C(C)(C)c3ccc(Oc4ccc(N5C(=O)c6ccc(-c7ccc8c(c7)C(=O)N(*)C8=O)cc6C5=O)cc4)cc3)cc2)cc1 (repeat unit) 2.8

Next up: *Oc1ccc(-c2c(-c3ccc(C#N)cc3)c(-c3ccc(C#N)cc3)c(-c3ccc4c(c3)Oc3c(C#N)c(*)c(*)c(C#N)c3O4)c(-c3ccc(C#N)cc3)c2-c2ccc(C#N)cc2)cc1O* (repeat unit) 1300

Next up: *c1ccc(C2(c3ccc(N4C(=O)c5ccc(C(c6ccc7c(c6)C(=O)N(*)C7=O)(C(F)(F)F)C(F)(F)F)cc5C4=O)cc3)c3ccccc3-c3ccccc32)cc1 (repeat unit) 58.9

Next up: *Oc1ccc(C(C)(C)c2ccc(OC(=O)c3cccc(C(*)=O)c3)cc2)cc1 (repeat unit) 5.6

Next up: *Sc1ccc(*)cc1 (repeat unit) 1.6

Next up: *c1ccc(Oc2ccc(Oc3ccc(*)cc3)c3c2C2c4ccccc4C3c3ccccc32)cc1 (repeat unit) 13.5

Next up: *Oc1ccc(C(=O)c2ccccc2-c2ccccc2C(=O)c2ccc(Oc3ccc(C(c4ccc(*)cc4)(C(F)(F)F)C(F)(F)F)cc3)cc2)cc1 (repeat unit) 3.12

Next up: *CC(*)c1ccc(C[Si](C)(C)C)cc1 (repeat unit) 79.8

* * *

CH4 permeability values for the compounds below.
Just so you know, I need the unit written after the number.

*c1ccc(Oc2ccc(N3C(=O)c4cc(Oc5ccc(C)cc5)c(-c5cc6c(cc5Oc5ccc(C)cc5)C(=O)N(*)C6=O)cc4C3=O)cc2)cc1 (repeat unit); 1.45 Barrer
*OCCCCCC(*)=O (repeat unit); 1.57 Barrer

Value lookup for CH4 permeability; key = *c1ccccc1Oc1ccc2ccccc2c1-c1c(Oc2ccccc2N2C(=O)c3ccc(C(c4ccc5c(c4)C(=O)N(*)C5=O)(C(F)(F)F)C(F)(F)F)cc3C2=O)ccc2ccccc12 (repeat unit) 0.07 Barrer

Next up: *c1c(C)c(C(=O)O)c(C)c(N2C(=O)c3ccc(C(c4ccc5c(c4)C(=O)N(*)C5=O)(C(F)(F)F)C(F)(F)F)cc3C2=O)c1C (repeat unit) 3.2 Barrer

* * *

Mark 1 (yes) only when O2 permeability stays strictly below 6 Barrer. Values equal to the cut-off are 0 (no).

Some solved cases for reference:
*Oc1ccc(C(C)(C)c2ccc(OC(=O)c3cc(C(*)=O)cc(C(C)(C)C)c3)c(C)c2)cc1C (repeat unit); 1 (yes)
*CC(O)C* (repeat unit); 1 (yes)
*c1ccc(Oc2ccc(N3C(=O)c4ccc(Sc5ccc6c(c5)C(=O)N(*)C6=O)cc4C3=O)cc2)cc1 (repeat unit); 1 (yes)
*c1c(C)cc(-c2cc(C)c(-c3cc(C)c(*)c(C)c3)cc2C)cc1C (repeat unit); 0 (no)
*O[Si](*)(C)CCC(F)(F)F (repeat unit); 0 (no)

Decide: O2 permeability of *c1c(C)cc(-c2cc(C)c(N3C(=O)c4cc5c(cc4C3=O)C3(C(C)C)c4ccccc4C5(C(C)C)c4cc5c(cc43)C(=O)N(*)C5=O)c3ccccc23)c2ccccc12 (repeat unit) strictly below 6 Barrer? 0 (no)

Next up: *C/C=C(/Cl)C* (repeat unit) 1 (yes)

Next up: *OCC1OC(COCC)C(*)C(OCC)C1OCC (repeat unit) 0 (no)

* * *

Mark yes (1) only when CO2 permeability stays strictly below 400 Barrer. Values equal to the cut-off are no (0).

Some solved cases for reference:
*c1cccc2c(-n3c(=O)c4cc5oc6cc7c(cc6oc5cc4c3=O)C3(CC(C)(C)c4cc5oc6cc8c(=O)n(*)c(=O)c8cc6oc5cc43)CC7(C)C)cccc12 (repeat unit); no (0)
*c1ccc(Sc2ccc(N3C(=O)c4ccc(-c5ccc6c(c5)C(=O)N(*)C6=O)cc4C3=O)cc2)cc1 (repeat unit); yes (1)
*c1ccc(Oc2ccc3ccccc3c2-c2c(Oc3ccc(N4C(=O)c5ccc(C(c6ccc7c(c6)C(=O)N(*)C7=O)(C(F)(F)F)C(F)(F)F)cc5C4=O)cc3C(F)(F)F)ccc3ccccc23)c(C(F)(F)F)c1 (repeat unit); yes (1)
*c1ccc(-c2ccc(N3C(=O)c4ccc(C(c5ccc6c(c5)C(=O)N(*)C6=O)(C(F)(F)F)C(F)(F)F)cc4C3=O)c(N)c2)cc1N (repeat unit); yes (1)
*CN1CN(*)Cc2cc3c(cc21)C1c2ccccc2C3c2cc(*)c(*)cc21 (repeat unit); no (0)

Decide: CO2 permeability of *c1ccc(-c2ccc(-n3c(=O)c4cc5oc6cc7c(cc6oc5cc4c3=O)C3(CC(C)(C)c4cc5oc6cc8c(=O)n(*)c(=O)c8cc6oc5cc43)CC7(C)C)cc2C(F)(F)F)c(C(F)(F)F)c1 (repeat unit) strictly below 400 Barrer? no (0)

Next up: *c1cccc(-c2cc(C)c(-c3cccc(*)c3C)cc2C)c1C (repeat unit) yes (1)

Next up: *C=C(*)C(C)(C)C (repeat unit) no (0)

Next up: *C(=C(*)c1ccc([Si](c2ccccc2)(c2ccccc2)c2ccccc2)cc1)c1ccccc1 (repeat unit) yes (1)

Next up: *c1cc(C)c(C)c(N2C(=O)c3ccc(Oc4cc(C)ccc4Oc4ccc5c(c4)C(=O)N(*)C5=O)cc3C2=O)c1C (repeat unit) yes (1)

Next up: *c1cc2c(cc1C)-c1cc(C)c(N3C(=O)c4ccc(-c5ccc6c(c5)C(=O)N(*)C6=O)cc4C3=O)cc1S2(=O)=O (repeat unit) yes (1)

Next up: *c1c(C)c2c(c(N3C(=O)c4ccc(C(c5ccc6c(c5)C(=O)N(*)C6=O)(C(F)(F)F)C(F)(F)F)cc4C3=O)c1C)C(C)(C)CC2 (repeat unit) no (0)

Next up: *Oc1ccc(S(=O)(=O)c2ccc(Oc3ccc4ccc(*)cc4c3)cc2)cc1 (repeat unit) yes (1)

Next up: *c1cc(C)c(C)c(N2C(=O)c3ccc(Oc4cc(C(C)(C)C)ccc4Oc4ccc5c(c4)C(=O)N(*)C5=O)cc3C2=O)c1C (repeat unit) yes (1)

Source listed as a polymer gas permeability compilation.
